// data source = PubChem BioAssay (NCI)

# Test system: OVCAR-4 ovarian
# procedure_details: NCI tumour cell line growth inhibition, 48 h
TGI values by entry

Cc1csc(/N=C\c2c(O)c3ccccc3oc2=O)n1 | > 100 µM

Q. If you can, please state the reported TGI value of O=[N+]([O-])CCc1cccc([N+](=O)[O-])c1 .
A. > 100 µM

Q. If you can, please state the reported TGI value of CCOC(=O)C(C)(C)Oc1ccc(/C=C/C(=O)c2ccc(Cl)cc2)cc1 .
A. 32.9 µM

---

GI50 values by entry
# Tested on: MOLT-4 leukemia
# procedure_details: NCI tumour cell line growth inhibition, 48 h

N#CC1=C(N)NC(N2CCOCC2)=NC12Nc1ccccc1N2 | 62.5 µM
Cc1ccc(N(CC(=O)Nc2ccc(S(=O)(=O)N3CCC(N4CCCC4)CC3)cc2)S(=O)(=O)c2ccc(Cl)cc2)cc1 | 1.87 µM
O=C1/C(=C\c2ccccn2)c2ccccc2N1c1c(Cl)cccc1Cl | 4.2 µM
COc1cc(Nc2nc3ccccc3cc2C(=O)Nc2ccc(F)c(F)c2)cc(OC)c1OC | 2.04 µM

Q. // returns reported GI50 for input COc1cc(-c2nc(-c3nc4ccccc4[nH]3)cc3c2[nH]c2ccccc23)cc(OC)c1OC
A. 3.93 µM

Q. Item under review: C=C1CCC2C(C)(COC(=O)CC)C(OC(=O)CC)CCC2(C)C1C/C=C1/C(=O)OCC1OC(=O)CC (stereo unspecified) . Reported GI50?
A. 2.62 µM
